Test system: Enterococcus faecalis
Assay: Antibacterial activity against Enterococcus faecalis ATCC 29212 assessed as reduction in bacterial growth incubated for 18 hrs by broth microdilution assay
Format: functional
Measured MIC by item
Your answer should be a plain number; it is taken to be in µg/mL.

CO[C@H]1/C=C/O[C@@]2(C)Oc3c(C)c(O)c4c(O)c(c(/C=N/N5CCN(C)CC5)c(O)c4c3C2=O)NC(=O)/C(C)=C\C=C\[C@H](C)[C@H](O)[C@@H](C)[C@@H](O)[C@@H](C)[C@H](OC(C)=O)[C@@H]1C [RIFAMPIN] ... 1

Would you kindly look at the next entry?
# input Item under review: NC[C@H]1O[C@H](O[C@H]2[C@H](O)[C@@H](O[C@H]3O[C@H](CO)[C@@H](O)[C@H](N)[C@H]3O)[C@H](N)C[C@@H]2N)[C@H](N)C[C@@H]1O [TOBRAMYCIN] . Reported MIC?
# output 8

====

System: Pseudomonas aeruginosa
Test: Antibacterial activity against gentamicin, tobramycin-resistant Pseudomonas aeruginosa CANWARD 96846 assessed as reduction in bacterial growth incubated for 18 hrs by broth microdilution assay
Format: functional
Assay readout: MIC

# input Item under review: CO[C@H]1/C=C/O[C@@]2(C)Oc3c(C)c(O)c4c(O)c(c(/C=N/N5CCN(Cc6cn(CCCCO[C@@H]7[C@@H](O[C@H]8O[C@H](CO)[C@@H](O)[C@H](N)[C@H]8O)[C@H](N)C[C@H](N)[C@H]7O[C@H]7O[C@H](CN)[C@@H](O)C[C@H]7N)nn6)CC5)c(O)c4c3C2=O)NC(=O)/C(C)=C\C=C\[C@H](C)[C@H](O)[C@@H](C)[C@@H](O)[C@@H](C)[C@H](OC(C)=O)[C@@H]1C.O=C(O)C(F)(F)F.O=C(O)C(F)(F)F.O=C(O)C(F)(F)F.O=C(O)C(F)(F)F.O=C(O)C(F)(F)F . Reported MIC?
# output > 32 µg/mL

====

Measured MIC by item
System: Escherichia coli
Assay: Antibacterial activity against gentamicin-resistant Escherichia coli CAN-ICU 61714 assessed as reduction in bacterial growth incubated for 18 hrs by broth microdilution assay
Assay type: functional
Your answer should be a plain number; it is taken to be in µg/mL.

NC[C@H]1O[C@H](O[C@H]2[C@H](O)[C@@H](O[C@H]3O[C@H](CO)[C@@H](O)[C@H](N)[C@H]3O)[C@H](N)C[C@@H]2N)[C@H](N)C[C@@H]1O ... 8

Would you kindly look at the next entry?
# input Item under review: CO[C@H]1/C=C/O[C@@]2(C)Oc3c(C)c(O)c4c(O)c(c(/C=N/N5CCN(C)CC5)c(O)c4c3C2=O)NC(=O)/C(C)=C\C=C\[C@H](C)[C@H](O)[C@@H](C)[C@@H](O)[C@@H](C)[C@H](OC(C)=O)[C@@H]1C . Reported MIC?
# output 8

====

Test system: Pseudomonas aeruginosa
Assay: Antibacterial activity against Pseudomonas aeruginosa 100036 assessed as reduction in bacterial growth incubated for 18 hrs by broth microdilution assay
Format: functional
Measured MIC by item
Your answer should be a plain number; it is taken to be in µg/mL.

Solved entries:
NC[C@H]1O[C@H](O[C@H]2[C@H](O)[C@@H](O[C@H]3O[C@H](CO)[C@@H](O)[C@H](N)[C@H]3O)[C@H](N)C[C@@H]2N)[C@H](N)C[C@@H]1O ... 128
CO[C@H]1/C=C/O[C@@]2(C)Oc3c(C)c(O)c4c(O)c(c(/C=N/N5CCN(Cc6cn(CCCCCCCCCCCCO[C@@H]7[C@@H](O[C@H]8O[C@H](CO)[C@@H](O)[C@H](N)[C@H]8O)[C@H](N)C[C@H](N)[C@H]7O[C@H]7O[C@H](CN)[C@@H](O)C[C@H]7N)nn6)CC5)c(O)c4c3C2=O)NC(=O)/C(C)=C\C=C\[C@H](C)[C@H](O)[C@@H](C)[C@@H](O)[C@@H](C)[C@H](OC(C)=O)[C@@H]1C.O=C(O)C(F)(F)F.O=C(O)C(F)(F)F.O=C(O)C(F)(F)F.O=C(O)C(F)(F)F.O=C(O)C(F)(F)F ... 256
CO[C@H]1/C=C/O[C@@]2(C)Oc3c(C)c(O)c4c(O)c(c(/C=N/N5CCN(Cc6cn(CCCCCCO[C@@H]7[C@@H](O[C@H]8O[C@H](CO)[C@@H](O)[C@H](N)[C@H]8O)[C@H](N)C[C@H](N)[C@H]7O[C@H]7O[C@H](CN)[C@@H](O)C[C@H]7N)nn6)CC5)c(O)c4c3C2=O)NC(=O)/C(C)=C\C=C\[C@H](C)[C@H](O)[C@@H](C)[C@@H](O)[C@@H](C)[C@H](OC(C)=O)[C@@H]1C.Cl.Cl.Cl.Cl.Cl ... 256

Would you kindly look at the next entry?
# input Item under review: CO[C@H]1/C=C/O[C@@]2(C)Oc3c(C)c(O)c4c(O)c(c(/C=N/N5CCN(C)CC5)c(O)c4c3C2=O)NC(=O)/C(C)=C\C=C\[C@H](C)[C@H](O)[C@@H](C)[C@@H](O)[C@@H](C)[C@H](OC(C)=O)[C@@H]1C . Reported MIC?
# output 32

====

Tested on: Streptococcus pneumoniae
Assay: Antibacterial activity against Streptococcus pneumoniae ATCC 49619 assessed as reduction in bacterial growth incubated for 18 hrs by broth microdilution assay
Assay type: functional
Assay readout: MIC (µg/mL)
Your answer should be a plain number; it is taken to be in µg/mL.

# input Item under review: CO[C@H]1/C=C/O[C@@]2(C)Oc3c(C)c(O)c4c(O)c(c(/C=N/N5CCN(Cc6cn(CCCCCCO[C@@H]7[C@@H](O[C@H]8O[C@H](CO)[C@@H](O)[C@H](N)[C@H]8O)[C@H](N)C[C@H](N)[C@H]7O[C@H]7O[C@H](CN)[C@@H](O)C[C@H]7N)nn6)CC5)c(O)c4c3C2=O)NC(=O)/C(C)=C\C=C\[C@H](C)[C@H](O)[C@@H](C)[C@@H](O)[C@@H](C)[C@H](OC(C)=O)[C@@H]1C.Cl.Cl.Cl.Cl.Cl . Reported MIC?
# output 2

====

Measured MIC by item
Test system: Pseudomonas aeruginosa
Experiment: Antibacterial activity against Pseudomonas aeruginosa 91433 assessed as reduction in bacterial growth incubated for 18 hrs by broth microdilution assay
Format: functional
Your answer should be a plain number; it is taken to be in µg/mL.

NC[C@H]1O[C@H](O[C@H]2[C@H](O)[C@@H](O[C@H]3O[C@H](CO)[C@@H](O)[C@H](N)[C@H]3O)[C@H](N)C[C@@H]2N)[C@H](N)C[C@@H]1O [TOBRAMYCIN] ... 16

Would you kindly look at the next entry?
# input Item under review: CO[C@H]1/C=C/O[C@@]2(C)Oc3c(C)c(O)c4c(O)c(c(/C=N/N5CCN(C)CC5)c(O)c4c3C2=O)NC(=O)/C(C)=C\C=C\[C@H](C)[C@H](O)[C@@H](C)[C@@H](O)[C@@H](C)[C@H](OC(C)=O)[C@@H]1C [RIFAMPIN] . Reported MIC?
# output 16

====

Measured viability at 48 h, 50 µM by item
Assay: Cytotoxicity against human HEK293 cells assessed as cell viability at 50 uM incubated for 48 hrs by prestoblue assay
Assay type: cell-based
Settings: read-out: Activity

Solved entries:
CO[C@H]1/C=C/O[C@@]2(C)Oc3c(C)c(O)c4c(O)c(c(/C=N/N5CCN(Cc6cn(CCCCCCO[C@@H]7[C@@H](O[C@H]8O[C@H](CO)[C@@H](O)[C@H](N)[C@H]8O)[C@H](N)C[C@H](N)[C@H]7O[C@H]7O[C@H](CN)[C@@H](O)C[C@H]7N)nn6)CC5)c(O)c4c3C2=O)NC(=O)/C(C)=C\C=C\[C@H](C)[C@H](O)[C@@H](C)[C@@H](O)[C@@H](C)[C@H](OC(C)=O)[C@@H]1C.Cl.Cl.Cl.Cl.Cl ... > 70%
CO[C@H]1/C=C/O[C@@]2(C)Oc3c(C)c(O)c4c(O)c(c(/C=N/N5CCN(Cc6cn(CCCCCCCCCCCCO[C@@H]7[C@@H](O[C@H]8O[C@H](CO)[C@@H](O)[C@H](N)[C@H]8O)[C@H](N)C[C@H](N)[C@H]7O[C@H]7O[C@H](CN)[C@@H](O)C[C@H]7N)nn6)CC5)c(O)c4c3C2=O)NC(=O)/C(C)=C\C=C\[C@H](C)[C@H](O)[C@@H](C)[C@@H](O)[C@@H](C)[C@H](OC(C)=O)[C@@H]1C.O=C(O)C(F)(F)F.O=C(O)C(F)(F)F.O=C(O)C(F)(F)F.O=C(O)C(F)(F)F.O=C(O)C(F)(F)F ... > 70%

# input Item under review: CO[C@H]1/C=C/O[C@@]2(C)Oc3c(C)c(O)c4c(O)c(c(/C=N/N5CCN(Cc6cn(CCCCO[C@@H]7[C@@H](O[C@H]8O[C@H](CO)[C@@H](O)[C@H](N)[C@H]8O)[C@H](N)C[C@H](N)[C@H]7O[C@H]7O[C@H](CN)[C@@H](O)C[C@H]7N)nn6)CC5)c(O)c4c3C2=O)NC(=O)/C(C)=C\C=C\[C@H](C)[C@H](O)[C@@H](C)[C@@H](O)[C@@H](C)[C@H](OC(C)=O)[C@@H]1C.O=C(O)C(F)(F)F.O=C(O)C(F)(F)F.O=C(O)C(F)(F)F.O=C(O)C(F)(F)F.O=C(O)C(F)(F)F . Reported viability at 48 h, 50 µM?
# output > 70%
